- Study Target: 5-hydroxytryptamine receptor 1D (Homo sapiens) (UniProt P28221)
- Sequence (P28221 whole entry): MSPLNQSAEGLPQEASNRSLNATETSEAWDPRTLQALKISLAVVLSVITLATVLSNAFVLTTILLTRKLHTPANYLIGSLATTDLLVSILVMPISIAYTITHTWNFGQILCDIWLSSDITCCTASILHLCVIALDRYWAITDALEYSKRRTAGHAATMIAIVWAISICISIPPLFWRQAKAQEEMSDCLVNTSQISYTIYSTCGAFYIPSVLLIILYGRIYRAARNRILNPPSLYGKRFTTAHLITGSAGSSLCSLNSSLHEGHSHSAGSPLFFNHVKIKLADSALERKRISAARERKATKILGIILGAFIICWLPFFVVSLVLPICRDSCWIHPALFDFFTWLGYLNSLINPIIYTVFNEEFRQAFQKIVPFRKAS
- Condition Context: Compound concentration 10 µM; call rule not given here
Labels: class 1 (active), class 0 (inactive)

> print(dat)
                                    compound                              study.target  category.label
 1  Cc1ccc2c(c1)c1c(n2CCc2ccc(C)nc2)CCN(C)C1  5-hydroxytryptamine receptor 1D (Homo sapiens) (UniProt P28221)         class 1
 2  CN1C[C@H](C(=O)N[C@]2(C)O[C@@]3(O)[C@@H]4CCCN4C(=O)[C@H](Cc4ccccc4)N3C2=O)C[C@@H]2c3cccc4[nH]cc(c34)C[C@H]21  5-hydroxytryptamine receptor 1D (Homo sapiens) (UniProt P28221)         class 1
 3  COc1cc(-n2cnc3cc(-c4ccc(Cl)cc4)sc3c2=O)ccc1OCCN1CCCC1  5-hydroxytryptamine receptor 1D (Homo sapiens) (UniProt P28221)         class 1
 4     CCCCCNC(=N)N/N=C/c1c[nH]c2ccc(OC)cc12  5-hydroxytryptamine receptor 1D (Homo sapiens) (UniProt P28221)         class 1
 5  CN1C2CCC1CC(OC(c1ccc(F)cc1)c1ccc(F)cc1)C2 (stereo not given)  5-hydroxytryptamine receptor 1D (Homo sapiens) (UniProt P28221)         class 1
 6  O=C(O)c1cc(-c2ccc(C3CCNCC3)cc2)c2ccc(-c3ccc(C(F)(F)F)cc3)cc2c1  5-hydroxytryptamine receptor 1D (Homo sapiens) (UniProt P28221)         class 1
 7     CN[C@@H]1CCc2[nH]c3ccc(C(N)=O)cc3c2C1  5-hydroxytryptamine receptor 1D (Homo sapiens) (UniProt P28221)         class 1
 8  CC1(C)SSC(C)(C)[C@@H](NC(=O)[C@@H](N)Cc2ccc(O)cc2)C(=O)NCC(=O)N[C@@H](Cc2ccccc2)C(=O)N[C@H]1C(=O)O  5-hydroxytryptamine receptor 1D (Homo sapiens) (UniProt P28221)         class 0
 9  CCCCCNC(=O)NS(=O)(=O)c1cc([N+](=O)[O-])ccc1NC1CCCCC1  5-hydroxytryptamine receptor 1D (Homo sapiens) (UniProt P28221)         class 0
10  COc1ccccc1N1CCN(CCCCNC(=O)c2ccc3ccccc3c2)CC1  5-hydroxytryptamine receptor 1D (Homo sapiens) (UniProt P28221)         class 1
11  NC[C@@H]1O[C@H](C23CC4CC(CC(C4)C2)C3)Cc2c1ccc(O)c2O  5-hydroxytryptamine receptor 1D (Homo sapiens) (UniProt P28221)         class 0
12       CC(C)(C)NC[C@H](O)COc1nsnc1N1CCOCC1  5-hydroxytryptamine receptor 1D (Homo sapiens) (UniProt P28221)         class 0
13       COc1cccc([C@@H](C)NCCCc2ccccc2Cl)c1  5-hydroxytryptamine receptor 1D (Homo sapiens) (UniProt P28221)         class 0
14  CCCCN(CCCC)C(=O)CN1C[C@@H](c2ccc3c(c2)OCO3)[C@H](C(=O)O)[C@H]1c1ccc(OC)cc1  5-hydroxytryptamine receptor 1D (Homo sapiens) (UniProt P28221)         class 0
15  Cc1nnn(-c2ccc(-c3ccc(C4(C(=O)O)CC4)cc3)cc2)c1NC(=O)O[C@H](C)c1ccccc1  5-hydroxytryptamine receptor 1D (Homo sapiens) (UniProt P28221)         class 0
16  CCCNS(=O)(=O)Nc1ncnc(OCCOc2ncc(Br)cn2)c1-c1ccc(Br)cc1  5-hydroxytryptamine receptor 1D (Homo sapiens) (UniProt P28221)         class 0
17                    CNC[C@H](O)c1cccc(O)c1  5-hydroxytryptamine receptor 1D (Homo sapiens) (UniProt P28221)         class 0
18  N#Cc1c(N)nc(SCc2csc(-c3ccc(Cl)cc3)n2)c(C#N)c1-c1ccc(OCCO)cc1  5-hydroxytryptamine receptor 1D (Homo sapiens) (UniProt P28221)         class 0
19  CN(C)C(=O)N[C@H]1CC[C@H](CCN2CCN(c3cccc(Cl)c3Cl)CC2)CC1  5-hydroxytryptamine receptor 1D (Homo sapiens) (UniProt P28221)         class 1
20  CC(C)NCC(O)COc1ccc(CCOCC2CC2)cc1 (stereo not given)  5-hydroxytryptamine receptor 1D (Homo sapiens) (UniProt P28221)         class 0
